[
  {
    "COMPOUND": "CCCc1ccccc1",
    "log10 Koa": 4.09
  },
  {
    "COMPOUND": "Clc1ccc2c(c1)Oc1cc(Cl)c(Cl)cc1O2",
    "log10 Koa": 9.14
  },
  {
    "COMPOUND": "Clc1cc(Cl)c2c(Cl)cccc2c1Cl",
    "log10 Koa": 8.58
  },
  {
    "COMPOUND": "Clc1cc(Cl)c(-c2c(Cl)cc(Cl)cc2Cl)c(Cl)c1",
    "log10 Koa": 8.99
  },
  {
    "COMPOUND": "Clc1cc(Cl)c2c(c1Cl)Oc1ccccc1O2",
    "log10 Koa": 8.97
  },
  {
    "COMPOUND": "CCCCCCCCCCCCCCCCCCCCO",
    "log10 Koa": 12.1
  },
  {
    "COMPOUND": "Clc1cc2c(oc3c(Cl)c(Cl)c(Cl)cc32)c(Cl)c1Cl",
    "log10 Koa": 10.9
  },
  {
    "COMPOUND": "Clc1cc(Cl)c(-c2ccccc2)cc1Cl",
    "log10 Koa": 8
  },
  {
    "COMPOUND": "COc1ccccc1",
    "log10 Koa": 4.01
  },
  {
    "COMPOUND": "Brc1ccc(Oc2ccccc2Br)cc1",
    "log10 Koa": 8.47
  },
  {
    "COMPOUND": "Clc1ccc(C(c2ccc(Cl)cc2)C(Cl)Cl)cc1",
    "log10 Koa": 10.1
  },
  {
    "COMPOUND": "Clc1cc2c(c(Cl)c1Cl)Oc1cc(Cl)c(Cl)c(Cl)c1O2",
    "log10 Koa": 11
  },
  {
    "COMPOUND": "ClC1=C(Cl)C2(Cl)C3C(Cl)C=CC3C1(Cl)C2(Cl)Cl (stereo unspecified)",
    "log10 Koa": 7.64
  },
  {
    "COMPOUND": "CI",
    "log10 Koa": 2.16
  },
  {
    "COMPOUND": "Clc1ccc2ccc(Cl)c(Cl)c2c1",
    "log10 Koa": 7.5
  },
  {
    "COMPOUND": "Clc1cc(Cl)c(-c2c(Cl)ccc(Cl)c2Cl)cc1Cl",
    "log10 Koa": 9.27
  },
  {
    "COMPOUND": "Clc1cc(Cl)c2c(Cl)cc(Cl)cc2c1",
    "log10 Koa": 8.28
  },
  {
    "COMPOUND": "Brc1ccc(Oc2cc(Br)c(Br)cc2Br)c(Br)c1",
    "log10 Koa": 11.3
  },
  {
    "COMPOUND": "COC(C)=O",
    "log10 Koa": 2.31
  },
  {
    "COMPOUND": "Clc1cc2c(oc3c(Cl)c(Cl)c(Cl)c(Cl)c32)c(Cl)c1Cl",
    "log10 Koa": 11.2
  },
  {
    "COMPOUND": "Clc1c(Cl)c(Cl)c2c(c1Cl)Oc1ccccc1O2",
    "log10 Koa": 9.7
  },
  {
    "COMPOUND": "CCCCCCCC=O",
    "log10 Koa": 5.36
  },
  {
    "COMPOUND": "Clc1ccc(-c2cc(Cl)c(Cl)c(Cl)c2)cc1Cl",
    "log10 Koa": 10.3
  },
  {
    "COMPOUND": "CCCCOC(C)=O",
    "log10 Koa": 3.65
  },
  {
    "COMPOUND": "Clc1c(Cl)c(Cl)c2ccccc2c1Cl",
    "log10 Koa": 8.3
  },
  {
    "COMPOUND": "Clc1cc2c(Cl)ccc(Cl)c2cc1Cl",
    "log10 Koa": 8.13
  },
  {
    "COMPOUND": "COC(C)(C)C",
    "log10 Koa": 2.58
  },
  {
    "COMPOUND": "CC(C)(C)O",
    "log10 Koa": 3.5
  },
  {
    "COMPOUND": "c1ccc(Nc2ccccc2)cc1",
    "log10 Koa": 7.64
  },
  {
    "COMPOUND": "C=CCCCC",
    "log10 Koa": 2.41
  },
  {
    "COMPOUND": "Clc1ccc(-c2cc(Cl)ccc2Cl)c(Cl)c1",
    "log10 Koa": 8.39
  },
  {
    "COMPOUND": "Clc1ccc(Cl)c(-c2cc(Cl)c(Cl)cc2Cl)c1",
    "log10 Koa": 9.06
  },
  {
    "COMPOUND": "CC(=O)OC(C)C",
    "log10 Koa": 2.93
  },
  {
    "COMPOUND": "Brc1ccc(Oc2ccccc2)c(Br)c1",
    "log10 Koa": 8.37
  },
  {
    "COMPOUND": "Clc1c(Cl)c(Cl)c2c(c1Cl)Oc1c(Cl)c(Cl)c(Cl)c(Cl)c1O2",
    "log10 Koa": 12.1
  },
  {
    "COMPOUND": "Clc1cc(Cl)c(-c2c(Cl)c(Cl)cc(Cl)c2Cl)cc1Cl",
    "log10 Koa": 9.87
  },
  {
    "COMPOUND": "CCCOC(C)=O",
    "log10 Koa": 3.17
  },
  {
    "COMPOUND": "Clc1cc2cc(Cl)c(Cl)cc2cc1Cl",
    "log10 Koa": 8.45
  },
  {
    "COMPOUND": "Clc1ccc(Cl)cc1",
    "log10 Koa": 4.46
  },
  {
    "COMPOUND": "CCCCC#N",
    "log10 Koa": 3.6
  },
  {
    "COMPOUND": "CCCC#N",
    "log10 Koa": 3.12
  },
  {
    "COMPOUND": "CCCOCCC",
    "log10 Koa": 2.97
  },
  {
    "COMPOUND": "Clc1cc2c(Cl)c(Cl)c(Cl)c(Cl)c2cc1Cl",
    "log10 Koa": 9.58
  },
  {
    "COMPOUND": "Clc1cc2c(Cl)cccc2c(Cl)c1Cl",
    "log10 Koa": 8.29
  },
  {
    "COMPOUND": "O=C(O)c1ccccc1O",
    "log10 Koa": 7.44
  },
  {
    "COMPOUND": "CCCCCC(C)=O",
    "log10 Koa": 4.15
  },
  {
    "COMPOUND": "Clc1ccc(-c2ccc(Cl)c(Cl)c2)c(Cl)c1",
    "log10 Koa": 9.02
  },
  {
    "COMPOUND": "Clc1cc2c(cc1Cl)Oc1ccccc1O2",
    "log10 Koa": 8.5
  },
  {
    "COMPOUND": "C1CCCCC1",
    "log10 Koa": 2.74
  },
  {
    "COMPOUND": "S=C=S",
    "log10 Koa": 2.28
  },
  {
    "COMPOUND": "FC(F)(F)F",
    "log10 Koa": -0.95
  }
]
